Data provenance: paper PMC11472320

The entries below come with measured Papp A→B values attached.
# Test system: MDR1 (P-gp)
# Test: in vitro
# Conditions Used: dog, MDCK-MDR1
Answer format: numeric, ×10⁻⁶ cm/s implied, no suffix.

Below are worked cases with known answers.
Query: Tell me Papp A→B reported for COc1cc(Cl)ccc1Nc1c(C#N)cnc2cc(OCCON3CCN(C)CC3)c(OC)cc12 [15a]
Reply: 5.9

Query: Given the compound COc1cc2c(Nc3cccc(OC)c3Cl)c(C#N)cnc2cc1OCCON1CCN(C)CC1 [12a] , write its reported Papp A→B.
Reply: 12.5

Query: Assign Papp A→B to the following record: COc1cc2c(Nc3cccc(OC)c3F)c(C#N)cnc2cc1OCCON1CCN(C)CC1 [13a]
Reply: 7.5

Query: Hello, please tell me recorded Papp A→B for this one: COc1cc(Nc2c(C#N)cnc3cc(OCCON4CCN(C)CC4)c(OC)cc23)c(F)cc1Cl
Reply: 0.7

Query: Return Papp A→B for the following compound: COc1cc2c(Nc3cccc(Cl)c3F)c(C#N)cnc2cc1OCCON1CCN(C)CC1 [11a]
Reply: 7.2

Please look at the following compound next.
Query: Respond only with Papp A→B recorded for COc1cc(Nc2c(C#N)cnc3cc(OCCON4CCN(C)CC4)c(OC)cc23)ccc1Cl [14a]
Reply: 4.1

* * *

# Test: in vitro
# Conditions Used: dog, MDCK-MDR1
Measure: recovery (%)
Respond with the bare value in %.

Recorded recovery, per entry:
Query: Tell me recovery reported for COCCc1ccc(OCC(O)CNC(C)C)cc1 (centres unmarked) [Metoprolol, reference compound]
Reply: 112

Query: Check the records and state recovery for COc1cc2c(Nc3cccc(OC)c3F)c(C#N)cnc2cc1OCCON1CCN(C)CC1 [13a]
Reply: 93.1

Query: # return recorded recovery for entry COc1cc(Nc2c(C#N)cnc3cc(OCCON4CCN(C)CC4)c(OC)cc23)ccc1Cl [14a]
Reply: 75.4

Query: Read off the recorded recovery for COc1cc2c(Nc3cccc(Cl)c3F)c(C#N)cnc2cc1OCCON1CCN(C)CC1 [11a]
Reply: 71.6

Query: // Input: COc1cc(Cl)ccc1Nc1c(C#N)cnc2cc(OCCON3CCN(C)CC3)c(OC)cc12 [15a] . Output its recovery only.
Reply: 84.5

Further cases:
Query: Recall and state the measured recovery for COc1cc(Nc2c(C#N)cnc3cc(OCCON4CCN(C)CC4)c(OC)cc23)c(F)cc1Cl [8a] .
Reply: 79.8

Query: Return value of recovery for input COc1cc2c(Nc3cccc(OC)c3Cl)c(C#N)cnc2cc1OCCON1CCN(C)CC1 [12a] , no commentary.
Reply: 95

Query: Given C[C@H]1O[C@@H](O[C@H]2[C@@H](O)C[C@H](O[C@H]3[C@@H](O)C[C@H](O[C@H]4CC[C@@]5(C)[C@H](CC[C@@H]6[C@@H]5C[C@@H](O)[C@]5(C)[C@@H](C7=CC(=O)OC7)CC[C@]65O)C4)O[C@@H]3C)O[C@@H]2C)C[C@H](O)[C@@H]1O [Digoxin, reference compound] , respond with its recovery.
Reply: 82.4

* * *

# System: Caco-2 cells
# Test: Caco-2 permeability
# Conditions Used: a-b
Measure: Caco-2 Papp (a-b) (×10⁻⁶ cm/s)
Kindly provide the numeric value in ×10⁻⁶ cm/s only, without the unit symbol.

Query: Identify measured Caco-2 Papp (a-b) associated with COc1cc2c(Nc3cccc(OC)c3F)c(C#N)cnc2cc1OCCON1CCN(C)CC1 [13a]
Reply: 2.7

Query: Please give measured Caco-2 Papp (a-b) of the following entry: COc1cc2c(Nc3cccc(OC)c3Cl)c(C#N)cnc2cc1OCCON1CCN(C)CC1 [12a]
Reply: 6.5

Query: Using known records, supply Caco-2 Papp (a-b) for COc1cc(Nc2c(C#N)cnc3cc(OCCON4CCN(C)CC4)c(OC)cc23)ccc1Cl [14a]
Reply: 2

Query: Item COc1cc(Cl)ccc1Nc1c(C#N)cnc2cc(OCCON3CCN(C)CC3)c(OC)cc12 [15a] : provide Caco-2 Papp (a-b)
Reply: 0.7

Query: Indicate its recorded Caco-2 Papp (a-b); the compound in question is COc1cc(Nc2c(C#N)cnc3cc(OCCON4CCN(C)CC4)c(OC)cc23)c(F)cc1Cl
Reply: 1.9

Query: Output measured Caco-2 Papp (a-b) for this item: COc1cc2c(Nc3cccc(Cl)c3F)c(C#N)cnc2cc1OCCON1CCN(C)CC1 [11a]
Reply: 3.7
